Here the recorded interaction score is given for each entry.
Biological target: T1, 4H754-bN
T1 chain: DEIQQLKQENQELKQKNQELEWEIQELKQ
Experiment: two-hybrid library CCNG1;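 also: natural log of median RNA to DNA barcode read ratio; higher means stronger binding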
# print the numeric value only

// known answers, use as guide
{"binder": "DEIQQLKQENQELKQKNQELEWEIQELKQ [4H754-bN]", "recorded_value": 0.447}
{"binder": "DEIQQLKQENQELEQKIQELKWKNQELEQ [4H687-bN]", "recorded_value": 0.422}
{"binder": "DENQQLKQKIQELEQKIQELEWENQELKQ [4H1828-bN]", "recorded_value": -2.15}
{"binder": "DKIQQLKQKNQELKQEIQELEWEIQELKQ [4H3010-bN]", "recorded_value": -1.56}
{"binder": "DKNQQLEQKIQELKQKIQELEWENQELEQ [4H3427-bN]", "recorded_value": -1.39}
{"binder": "DKIQQLKQENQELEQEIQELKWKIQELKQ [4H2702-bN]", "recorded_value": -1.18}
{"binder": "DENQQLEQENQELKQKIQELKWEIQELEQ [4H1257-bN]", "recorded_value": -1.46}
{"binder": "DKIQQLKQENQELEQKIQELKWEIQELEQ [4H2729-bN]", "recorded_value": -0.565}
{"binder": "DEIQQLEQKNQELKQEIQELEWKIQELKQ [4H454-bN]", "recorded_value": -0.587}
{"binder": "DENQQLKQKIQELEQKNQELEWKIQELEQ [4H1845-bN]", "recorded_value": -1.28}

Prompt: // query interaction score value for entry DENQQLEQEIQELEQKNQELKWEIQELEQ [4H1081-bN]
Response: -0.498

Prompt: // query interaction score value for entry DKNQQLEQEIQELEQKIQELEWKNQELKQ [4H3112-bN]
Response: -1.34

Prompt: // query interaction score value for entry DENQQLEQENQELEQEIQELEWKIQELKQ [4H1158-bN]
Response: 0.195
